# protocolDescription: solvent given as SMILES
# assayConditions: in ClC(Cl)Cl
measurementName: fluorescence lifetime (ns)
Answers are plain numbers, in ns.

Reference set (3 entries):
                                   compound  testvalue
0  CC(=O)O[B-]1(OC(C)=O)OC(/C=C/c2ccc(C)cc2)=CC(/C=C/c2ccc(C)cc2)=[O+]1       1.25
1  CCCCCCN1C(=O)c2cccc3cc(/N=C\c4ccc(N5CCOCC5)cc4)cc(c23)C1=O       3.84
2  COc1cc2cc(OC)c(-c3ccc([N+](=O)[O-])cc3)cc2cc1-c1ccc([N+](=O)[O-])cc1       0.62

Batch: fluorescence lifetime for all items listed.
1. CC(C)(C)c1ccc2c(c1)c1cc(C(C)(C)C)ccc1n2-c1ccc(C#Cc2ccccc2)cc1
2. Cc1ccc(NC(=O)c2sc(Br)nc2C)cc1
3. COC(=O)C(Cc1ccc2oc(-c3ccc(Nc4ccccc4)cc3)nc2c1)NC(=O)OC(C)(C)C (stereo not drawn)
4. CN(C)c1ccc2nc(/C=C/c3cc4c5c(c3)CCCN5CCC4)c(=O)oc2c1
5. CC(C)n1c(=O)c2cc3ccc4cccc5ccc(c2c1=O)c3c45

2.39
0.12
2.26
1.35
5.16
